Below is a list of entries, each paired with its recorded ELISA ratio (target to background) value.
Biological target: T1, PD-L1-Fc (UniProt Q9NZQ7 19-238)
T1 construct: purified recombinant target-Fc protein; also called FC-PD-L1; not shown: Fc
T1 sequence (Q9NZQ7 19-238 limits assumed): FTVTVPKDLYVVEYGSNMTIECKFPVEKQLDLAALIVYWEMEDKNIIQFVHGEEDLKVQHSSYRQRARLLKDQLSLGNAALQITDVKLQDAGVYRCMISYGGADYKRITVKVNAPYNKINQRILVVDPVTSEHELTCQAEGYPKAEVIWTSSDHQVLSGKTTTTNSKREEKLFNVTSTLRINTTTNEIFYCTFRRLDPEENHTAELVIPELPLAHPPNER
Assay: phage ELISA, target-Fc against non-specific control
Your answer should be a plain number; it is taken to be in ratio.

GET /value?item= SEQ ID NO 38 (designed binder) MGSWTEFQSRLDAIHSRLRALGGSEAELAAFEKEIAAFESELQAYKGKGNPEVELLRDDAAFIRHFLQAYRHN &field=ELISA ratio (target to background) returns 8.68

Others:
GET /value?item= SEQ ID NO 39 (designed binder) MGSWQEFDDRLNAIKARLQALGGSEAELAAFEKEIAAFESELQAYKGKGNPEVEDLRDDAAFIRRFLQAYRHN &field=ELISA ratio (target to background) returns 7.41

GET /value?item= SEQ ID NO 42 (designed binder) MGSWYEFESRLDAIHERLHALGGSEAELAAFEKEIAAFESELQAYKGKGNPEVENLRGDAAFIRHFLQAYRHN &field=ELISA ratio (target to background) returns 4.88
